assay: Inhibition of GPAT at 40 ug/ml
Decision: inhibition >= 20% yields True, all other cases yield False.

Here are 4 compounds together with their reported answers.
CCCCCCCCS(=O)(=O)N[C@H]1CC[C@H](C(=O)O)[C@@H]1O (racemic)
False
CCCCCCCCS(=O)(=O)N[C@H]1CCC[C@H](CC(=O)O)[C@@H]1O (racemic)
True
CCCCCCCCS(=O)(=O)N[C@@H]1CCC[C@H](CC(=O)O)[C@H]1O (racemic)
False
CCCCCCCCS(=O)(=O)N[C@@H]1CC[C@H](C(=O)O)[C@H]1O (racemic)
True

# check: inhibition of CCCCCCCCS(=O)(=O)N[C@H]1CC[C@H](C(=O)O)[C@H]1O (racemic) is greater than or equal to 20%
False

----------
Exercise: state measured inhibition for each of the compounds provided.
experiment: Inhibition of GPAT at 40 ug/ml
Numbers only, in %.

CCCCCCCCS(=O)(=O)N[C@@H]1[C@@H](O)CC[C@H]1C(=O)O (racemic)
12
CCCCCCCCS(=O)(=O)N[C@H]1[C@H](O)CC[C@H]1C(=O)O (racemic)
15
CCCCCCCCS(=O)(=O)N[C@H]1CC[C@H](CC(=O)O)[C@H]1O (racemic)
8
CCCCCCCCS(=O)(=O)N[C@@H]1CC[C@H](CC(=O)O)[C@H]1O (racemic)
16
CCCCCCCCCS(=O)(=O)Nc1ccccc1C(=O)O
97
CCCCCCCCS(=O)(=O)N[C@H]1CCC[C@H](CC(=O)O)[C@H]1O (racemic)
2
CCCCCCCCS(=O)(=O)N[C@H]1CCC[C@H](C(=O)O)[C@H]1O (racemic)
36
CCCCCCCCS(=O)(=O)N[C@H]1CCC[C@H](C(=O)O)[C@@H]1O (racemic)
15

Go through the items and report each one's inhibition.
1. CCCCCCCCS(=O)(=O)N[C@H]1CC[C@H](CC(=O)O)[C@@H]1O (racemic)
2. CCCCCCCCS(=O)(=O)N[C@@H]1CCC[C@H](C(=O)O)[C@H]1O (racemic)

[8, 17]
